biological target: pSTAT6 (Homo sapiens); construct: pY641-STAT6 MSD read-out; assay: MSD-pSTAT-PBMC Assay, pSTAT6 (IL-4 stimulated PBMC); type: cell-based; conditions: compound 3 hrs, then 1 ng/mL IL-4 for 10 min, pY641-STAT6, read-out: pSTAT6 IC50
pIC50: −log10 of the molar value.
Listing of entries alongside the reported pIC50.

Query :: Let me know recorded pIC50 for Cc1ccc2onc(C(=O)N3CC[C@H]4CC[C@@H](C(=O)N(C)CCCCCCC#Cc5cccc6c5CN(C5CCC(=O)NC5=O)C6=O)N4C(=O)[C@@H](NC(=O)c4ccc5ccc(C(F)P(=O)(O)O)cc5c4)C3)c2c1 (some centres unmarked) , thanks.
Result :: < 5.52

----------
Listing of entries alongside the reported IC50.
molecular target: pSTAT3 (Homo sapiens); construct: pY705-STAT3 MSD read-out; assay: MSD-pSTAT-PBMC Assay, pSTAT3 (IL-6 stimulated PBMC); type: cell-based; conditions: read-out: pSTAT3 IC50, compound 3 hrs, then 10 ng/mL IL-6 for 10 min, pY705-STAT3
Sequence (P40763 whole entry): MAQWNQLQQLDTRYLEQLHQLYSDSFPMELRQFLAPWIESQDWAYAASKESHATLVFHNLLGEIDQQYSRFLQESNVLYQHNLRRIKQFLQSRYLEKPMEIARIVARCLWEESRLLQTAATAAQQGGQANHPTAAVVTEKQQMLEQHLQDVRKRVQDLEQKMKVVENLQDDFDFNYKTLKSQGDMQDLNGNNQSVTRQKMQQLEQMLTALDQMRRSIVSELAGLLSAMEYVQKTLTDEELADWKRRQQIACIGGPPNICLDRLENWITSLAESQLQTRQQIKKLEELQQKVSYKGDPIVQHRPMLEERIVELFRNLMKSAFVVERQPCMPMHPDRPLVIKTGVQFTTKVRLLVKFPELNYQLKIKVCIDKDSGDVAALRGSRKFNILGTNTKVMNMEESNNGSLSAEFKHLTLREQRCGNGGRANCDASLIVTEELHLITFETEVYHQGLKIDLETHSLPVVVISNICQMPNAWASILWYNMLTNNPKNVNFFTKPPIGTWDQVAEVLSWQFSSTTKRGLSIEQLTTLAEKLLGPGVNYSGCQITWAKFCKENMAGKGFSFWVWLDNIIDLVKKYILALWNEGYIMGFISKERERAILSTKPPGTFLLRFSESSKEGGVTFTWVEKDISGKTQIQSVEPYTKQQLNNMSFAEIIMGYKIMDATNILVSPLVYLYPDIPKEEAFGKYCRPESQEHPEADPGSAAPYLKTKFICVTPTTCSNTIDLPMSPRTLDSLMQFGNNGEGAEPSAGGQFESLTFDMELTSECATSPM

Worked examples, 4 compounds total:
Query :: Let me know recorded IC50 for CC(=O)N1CC[C@H]2CC[C@@H](C(=O)Nc3ccc(-c4ccc(NC(=O)CCCCCC#Cc5cccc6c5CN(C5CCC(=O)NC5=O)C6=O)cc4)cc3)N2C(=O)[C@@H](NC(=O)c2cc3cc(C(F)(F)P(=O)(OCOC(=O)C(C)(C)C)OCOC(=O)C(C)(C)C)ccc3[nH]2)C1 (some centres unmarked) [Compound 4] , thanks.
Result :: 1 to 3 µM

Query :: Let me know recorded IC50 for CCCC(=O)SCCOP(=O)(OCCSC(=O)CCC)C(F)(F)c1ccc2ccc(C(=O)N[C@H]3CN(C(=O)c4n[nH]c5ccc(C)cc45)CC[C@H]4CC[C@@H](C(=O)N(C)CCCCCCC#Cc5cccc6c5CN(C5CCC(=O)NC5=O)C6=O)N4C3=O)cc2c1 (some centres unmarked) [Compound 12] , thanks.
Result :: > 3 µM

Query :: Let me know recorded IC50 for Cc1ccc2[nH]nc(C(=O)N3CC[C@H]4CC[C@@H](C(=O)NCCCCCCC#Cc5cccc6c5CN(C5CCC(=O)NC5=O)C6=O)N4C(=O)[C@@H](NC(=O)c4ccc5ccc(C(F)(F)P(=O)(O)O)cc5c4)C3)c2c1 (some centres unmarked) [Compound 9] , thanks.
Result :: > 3 µM

Query :: Let me know recorded IC50 for CN(C(=O)[C@@H]1CC[C@@H]2CCN(C(=O)CCCCCC#Cc3cccc4c3CN(C3CCC(=O)NC3=O)C4=O)C[C@H](NC(=O)c3cc4cc(C(F)(F)P(=O)(O)O)ccc4[nH]3)C(=O)N21)c1ccccc1 (some centres unmarked) [Compound 1] , thanks.
Result :: > 3 µM

Shift focus to the following entry.
Query :: Let me know recorded IC50 for CCCC(=O)SCCOP(=O)(OCCSC(=O)CCC)C(F)(F)c1ccc2ccc(C(=O)N[C@H]3CN(C(=O)c4n[nH]c5ccc(C)cc45)CC[C@H]4CC[C@@H](C(=O)NCCCCCCCCC(=O)N[C@H](C(=O)N5C[C@H](O)C[C@H]5C(=O)N[C@@H](C)c5ccc(-c6scnc6C)cc5)C(C)(C)C)N4C3=O)cc2c1 [Compound 8] , thanks.
Result :: > 3 µM

----------
Molecular target: pSTAT6 (Homo sapiens)
Construct: pY641-STAT6 MSD read-out
Sequence (P42226 1-847): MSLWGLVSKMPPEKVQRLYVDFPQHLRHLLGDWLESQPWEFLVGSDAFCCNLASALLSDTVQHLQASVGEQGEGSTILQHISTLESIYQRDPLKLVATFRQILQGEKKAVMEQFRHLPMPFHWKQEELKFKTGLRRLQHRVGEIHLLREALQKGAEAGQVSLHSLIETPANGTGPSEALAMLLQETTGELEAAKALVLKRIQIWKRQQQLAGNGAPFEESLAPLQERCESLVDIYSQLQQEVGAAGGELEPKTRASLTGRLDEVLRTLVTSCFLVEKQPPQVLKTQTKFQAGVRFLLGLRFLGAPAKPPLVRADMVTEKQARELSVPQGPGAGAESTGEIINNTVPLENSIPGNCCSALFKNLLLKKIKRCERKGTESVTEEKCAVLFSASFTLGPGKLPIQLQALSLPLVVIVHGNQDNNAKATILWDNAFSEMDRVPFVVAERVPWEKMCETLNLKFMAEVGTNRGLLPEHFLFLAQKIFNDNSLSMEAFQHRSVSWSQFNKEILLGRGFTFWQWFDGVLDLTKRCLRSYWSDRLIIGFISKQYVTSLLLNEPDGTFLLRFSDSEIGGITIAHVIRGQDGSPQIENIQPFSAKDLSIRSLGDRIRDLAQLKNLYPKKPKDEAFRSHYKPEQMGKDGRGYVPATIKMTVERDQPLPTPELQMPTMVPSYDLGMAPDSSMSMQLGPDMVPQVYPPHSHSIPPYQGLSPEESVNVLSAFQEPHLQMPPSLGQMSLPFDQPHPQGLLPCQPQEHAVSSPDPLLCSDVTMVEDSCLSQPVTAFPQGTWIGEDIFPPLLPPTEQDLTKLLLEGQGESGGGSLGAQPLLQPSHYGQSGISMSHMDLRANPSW
Assay: MSD-pSTAT-PBMC Assay, pSTAT6 (IL-4 stimulated PBMC)
Format: cell-based
Settings: compound 3 hrs, then 1 ng/mL IL-4 for 10 min, pY641-STAT6, read-out: pSTAT6 IC50
Description: Cryopreserved Peripheral Blood Mononuclear Cells (PBMC) are from AllCells. Recombinant Human IL-4 and IL-6 are from Peprotech. […] Cryopreserved PBMCs were thawed out and allowed to recover overnight in IMDM+10% heat-inactivated FBS prior to plating 50,000 (STAT3) or 25,000 (STAT6) cells per well in 96-well U-bottom tissue culture plates. […] Assay plates were then washed and 150 μL of 1× Read Buffer-T (MSD) was added to each well prior to reading on an SQ120 MSD Plate Reader. […]
pIC50: −log10 of the molar value.
Listing of entries alongside the reported pIC50.

Query :: Let me know recorded pIC50 for Cc1ccc2onc(C(=O)N3CC[C@H]4CC[C@@H](C(=O)N(C)CCCCCCC#Cc5cccc6c5CN(C5CCC(=O)NC5=O)C6=O)N4C(=O)[C@@H](NC(=O)c4ccc5ccc(C(F)(F)P(=O)(OCOC(=O)OC(C)C)OCOC(=O)OC(C)C)cc5c4)C3)c2c1 (some centres unmarked) , thanks.
Result :: > 7.00

Query :: Let me know recorded pIC50 for `CC(=O)N[C@H](C(=O)N1C[C@H](O)C[C@H]1C(=O)NCc1ccc(-c2scnc2C)cc1OCCCCN(C)C(=O)[C@@H]1CC[C@@H]2CCN(C(=O)c3noc4ccc(C)cc34)C[C@H](NC(=O)c3ccc4ccc(C(F)(F)P(=O)(O)O)cc4c3)C(=O)N21)C(C)(C)C` , thanks.
Result :: < 5.52

----------
target: STAT3 (Homo sapiens, UniProt P40763); construct: Recombinant STAT3 protein (STAT3(G127-1722)); assay: STAT3 Fluorescence Polarization (FP) Assay; assay type: binding; conditions: recombinant STAT3 25 nM; probe 5-FAM-GpYLPQTV-NH2 2 nM; 45 min, room temperature; read-out: STAT3 FP IC50
Sequence (P40763 127-722 limits assumed): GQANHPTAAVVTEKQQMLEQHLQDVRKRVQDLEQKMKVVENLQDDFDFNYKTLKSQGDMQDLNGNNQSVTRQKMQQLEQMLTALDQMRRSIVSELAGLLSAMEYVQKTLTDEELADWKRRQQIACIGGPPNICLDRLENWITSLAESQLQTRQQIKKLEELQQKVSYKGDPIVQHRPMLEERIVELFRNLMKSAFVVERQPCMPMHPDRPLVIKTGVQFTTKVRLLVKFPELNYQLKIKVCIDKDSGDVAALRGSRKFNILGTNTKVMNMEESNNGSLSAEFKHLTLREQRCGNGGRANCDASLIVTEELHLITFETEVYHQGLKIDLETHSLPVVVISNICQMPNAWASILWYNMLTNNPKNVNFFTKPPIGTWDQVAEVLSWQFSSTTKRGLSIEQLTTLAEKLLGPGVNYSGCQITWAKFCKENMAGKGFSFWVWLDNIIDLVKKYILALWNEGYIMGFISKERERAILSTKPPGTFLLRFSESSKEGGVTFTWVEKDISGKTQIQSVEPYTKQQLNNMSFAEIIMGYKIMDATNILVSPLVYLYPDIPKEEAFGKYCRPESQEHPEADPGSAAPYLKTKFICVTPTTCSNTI
Readout name: IC50

Worked examples, 3 compounds total:
Query :: Let me know recorded IC50 for Cc1ccc2onc(C(=O)N3CC[C@H]4CC[C@@H](C(=O)N(C)CCCCCCC#Cc5cccc6c5CN(C5CCC(=O)NC5=O)C6=O)N4C(=O)[C@@H](NC(=O)c4ccc5ccc(C(F)(F)P(=O)(O)O)cc5c4)C3)c2c1 (stereo partly shown) , thanks.
Result :: > 10 µM

Query :: Let me know recorded IC50 for N#CC1CN(C(=O)C2CCC3CCN(C(=O)CCCCCC#Cc4cccc5c4CN(C4CCC(=O)NC4=O)C5=O)CC(NC(=O)c4cc5cc(C(F)(F)P(=O)(O)O)ccc5s4)C(=O)N32)CC1c1ccccc1 (stereo not shown) , thanks.
Result :: 1 to 10 µM

Query :: Let me know recorded IC50 for Cc1ccc2onc(C(=O)N3CC[C@H]4CC[C@@H](C(=O)N5CCN(c6ccc7c(c6)[nH]c(=O)n7C6CCC(=O)NC6=O)CC5)N4C(=O)[C@@H](NC(=O)c4ccc5ccc(C(F)(F)P(=O)(O)O)cc5c4)C3)c2c1 (stereo partly shown) , thanks.
Result :: 1 to 10 µM

Shift focus to the following entry.
Query :: Let me know recorded IC50 for CN(C)c1ccncc1C1CN(C(=O)[C@@H]2CC[C@@H]3CCN(C(=O)CCCCCC#Cc4cccc5c4CN(C4CCC(=O)NC4=O)C5=O)C[C@H](NC(=O)c4cc5cc(C(F)(F)P(=O)(O)O)ccc5s4)C(=O)N32)C1 (stereo partly shown) , thanks.
Result :: < 0.1 µM

----------
target: pSTAT3 (Homo sapiens); construct: pY705-STAT3 MSD read-out; assay: MSD-pSTAT-PBMC Assay, pSTAT3 (IL-6 stimulated PBMC); assay type: cell-based; details: compound 3 hrs, then 10 ng/mL IL-6 for 10 min, pY705-STAT3, read-out: pSTAT3 IC50
pIC50: −log10 of the molar value.
Readout name: pIC50

Query :: Let me know recorded pIC50 for CN(C)c1ccncc1C1CN(C(=O)[C@@H]2CC[C@@H]3CCN(C(=O)CCCCCC#Cc4cccc5c4CN(C4CCC(=O)NC4=O)C5=O)C[C@H](NC(=O)c4cc5cc(C(F)(F)P(=O)(O)O)ccc5s4)C(=O)N32)C1 (stereo partly shown) , thanks.
Result :: 6.00 to 7.00

Query :: Let me know recorded pIC50 for Cc1ccc2onc(C(=O)N3CC[C@H]4CC[C@@H](C(=O)N(C)CCCCCCC#Cc5cccc6c5CN(C5CCC(=O)NC5=O)C6=O)N4C(=O)[C@@H](NC(=O)c4ccc5ccc(C(F)(F)P(=O)(OCCSC(=O)CC(C)C)OCCSC(=O)CC(C)C)cc5c4)C3)c2c1 (stereo partly shown) , thanks.
Result :: < 5.52

Query :: Let me know recorded pIC50 for O=C1CCC(N2Cc3c(C#CCCCCCC(=O)N4CC[C@H]5CC[C@@H](C(=O)N6CC(c7cccnc7)C6)N5C(=O)[C@@H](NC(=O)c5cc6cc(C(F)(F)P(=O)(O)O)ccc6s5)C4)cccc3C2=O)C(=O)N1 (stereo partly shown) , thanks.
Result :: < 5.52

Further cases:
Query :: Let me know recorded pIC50 for N#CC1CN(C(=O)C2CCC3CCN(C(=O)CCCCCC#Cc4cccc5c4CN(C4CCC(=O)NC4=O)C5=O)CC(NC(=O)c4cc5cc(C(F)(F)P(=O)(O)O)ccc5s4)C(=O)N32)CC1c1ccccc1 (stereo not shown) , thanks.
Result :: < 5.52
